- measuredOn: T1, IL-18 receptors on HEK-Blue IL-18 reporter cells (UniProt Q13478 19-541; O95256 20-599, limits assumed)
- T1 sequence (looked up) 1: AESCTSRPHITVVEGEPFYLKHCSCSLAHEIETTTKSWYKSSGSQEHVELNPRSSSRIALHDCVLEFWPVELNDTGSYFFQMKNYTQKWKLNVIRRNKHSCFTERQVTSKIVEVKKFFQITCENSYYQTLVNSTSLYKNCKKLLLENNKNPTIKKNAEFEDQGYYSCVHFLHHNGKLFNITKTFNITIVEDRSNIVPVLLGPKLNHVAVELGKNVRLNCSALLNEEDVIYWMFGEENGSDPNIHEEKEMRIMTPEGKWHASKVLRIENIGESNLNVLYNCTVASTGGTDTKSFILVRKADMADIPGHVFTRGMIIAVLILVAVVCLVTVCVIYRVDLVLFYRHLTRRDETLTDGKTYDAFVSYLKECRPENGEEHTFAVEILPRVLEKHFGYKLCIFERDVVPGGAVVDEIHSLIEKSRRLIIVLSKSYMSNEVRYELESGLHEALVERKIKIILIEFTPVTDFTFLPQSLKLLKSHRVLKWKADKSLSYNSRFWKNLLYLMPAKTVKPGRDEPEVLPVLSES
- T1 sequence (looked up) 2: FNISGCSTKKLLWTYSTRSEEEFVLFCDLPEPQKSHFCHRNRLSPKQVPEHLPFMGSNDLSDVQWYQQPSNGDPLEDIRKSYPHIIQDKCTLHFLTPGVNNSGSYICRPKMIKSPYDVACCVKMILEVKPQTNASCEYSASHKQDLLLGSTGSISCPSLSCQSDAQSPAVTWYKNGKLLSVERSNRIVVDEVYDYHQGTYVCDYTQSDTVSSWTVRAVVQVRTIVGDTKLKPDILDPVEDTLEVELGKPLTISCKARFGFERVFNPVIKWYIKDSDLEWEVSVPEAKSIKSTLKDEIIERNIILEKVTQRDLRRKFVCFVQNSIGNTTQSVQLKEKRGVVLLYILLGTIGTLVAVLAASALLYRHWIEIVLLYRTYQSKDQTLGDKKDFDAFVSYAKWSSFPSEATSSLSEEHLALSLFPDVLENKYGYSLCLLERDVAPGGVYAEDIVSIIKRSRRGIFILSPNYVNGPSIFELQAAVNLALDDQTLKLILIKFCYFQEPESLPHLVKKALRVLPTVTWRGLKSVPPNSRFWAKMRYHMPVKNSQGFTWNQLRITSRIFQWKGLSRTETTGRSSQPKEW
- runDescription: cell-based or functional assay; further: unit not given here
Doc: threshold 0.2 (exclusive). Items with Activity, No BP, DF-500000 beneath it return Y; others return N.

1) IL-18 variant G3P, E6K, D54Y, S55P, T63S, N91S, R104Q, Q154R (ligand) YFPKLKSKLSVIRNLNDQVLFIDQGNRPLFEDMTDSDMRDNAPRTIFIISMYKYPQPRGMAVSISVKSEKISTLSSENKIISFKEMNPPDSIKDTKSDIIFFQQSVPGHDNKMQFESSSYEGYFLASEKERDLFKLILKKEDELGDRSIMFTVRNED
N

Ask | # strict comparison: is reported Activity, No BP, DF-500000 < 0.2? input = IL-18 variant G3V, E6Q, T34P, D54M, S55F, N91R, R104H (ligand) YFVKLQSKLSVIRNLNDQVLFIDQGNRPLFEDMPDSDMRDNAPRTIFIISMYKMFQPRGMAVTISVKSEKISTLSSENKIISFKEMNPPDRIKDTKSDIIFFQHSVPGHDNKMQFESSSYEGYFLASEKERDLFKLILKKEDELGDRSIMFTVQNED
Reply | N

Ask | Find out if reported Activity, No BP, DF-500000 for IL-18 variant G3P, E6H, N91L (ligand) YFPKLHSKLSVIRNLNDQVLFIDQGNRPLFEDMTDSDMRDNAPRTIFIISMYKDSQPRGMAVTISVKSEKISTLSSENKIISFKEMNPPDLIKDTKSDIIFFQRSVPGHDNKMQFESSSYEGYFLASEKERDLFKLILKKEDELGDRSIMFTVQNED is less than 0.2
Reply | N

Ask | Lab note: Activity, No BP, DF-500000 threshold 0.2. Does this binder come in strictly under it? IL-18 variant G3Y, E6S, K53S, D54W, S55L, T63S, N91I (ligand) YFYKLSSKLSVIRNLNDQVLFIDQGNRPLFEDMTDSDMRDNAPRTIFIISMYSWLQPRGMAVSISVKSEKISTLSSENKIISFKEMNPPDIIKDTKSDIIFFQRSVPGHDNKMQFESSSYEGYFLASEKERDLFKLILKKEDELGDRSIMFTVQNED
Reply | N

Ask | Hello, is Activity, No BP, DF-500000 of the following binder strictly smaller than 0.2? IL-18 variant G3L, E6Q, T63H, N91M, R104H (ligand) YFLKLQSKLSVIRNLNDQVLFIDQGNRPLFEDMTDSDMRDNAPRTIFIISMYKDSQPRGMAVHISVKSEKISTLSSENKIISFKEMNPPDMIKDTKSDIIFFQHSVPGHDNKMQFESSSYEGYFLASEKERDLFKLILKKEDELGDRSIMFTVQNED
Reply | Y

Ask | Here's an entry: IL-18 variant G3P, E6K, K53T, D54Y, S55V, T63I, N91I (ligand) YFPKLKSKLSVIRNLNDQVLFIDQGNRPLFEDMTDSDMRDNAPRTIFIISMYTYVQPRGMAVIISVKSEKISTLSSENKIISFKEMNPPDIIKDTKSDIIFFQRSVPGHDNKMQFESSSYEGYFLASEKERDLFKLILKKEDELGDRSIMFTVQNED . Is its Activity, No BP, DF-500000 below 0.2?
Reply | Y

Ask | Say whether its Activity, No BP, DF-500000 is strictly beneath 0.2. Entry: IL-18 variant G3N, E6S, K53Q, D54W, S55R, N91T, R104T (ligand) YFNKLSSKLSVIRNLNDQVLFIDQGNRPLFEDMTDSDMRDNAPRTIFIISMYQWRQPRGMAVTISVKSEKISTLSSENKIISFKEMNPPDTIKDTKSDIIFFQTSVPGHDNKMQFESSSYEGYFLASEKERDLFKLILKKEDELGDRSIMFTVQNED
Reply | Y
